Origin of the recorded values: ChEMBL document CHEMBL1158264

Each item that follows carries a reported IC50.
Test system: KB
ASSAY_SUMMARY: Cytotoxicity against human KB cells
Type: functional, cell-based
Number only, in µg/mL; omit the unit.

// worked examples, IC50 included
{"COMPOUND": "COc1cccc2c1C(=O)c1c(O)c3c(c(O)c1C2=O)C[C@@](O)(C(=O)CO)C[C@@H]3O[C@H]1C[C@H](N)[C@H](O)[C@H](C)O1 [DOXORUBICIN]", "VALUE_REPORTED": 1.5}
{"COMPOUND": "COc1cc(O)c2c(=O)cc(-c3cc(OC)c(O)c(OC)c3)oc2c1", "VALUE_REPORTED": 7.7}
{"COMPOUND": "COc1cc(O)c2c(=O)cc(-c3ccc(O)cc3)oc2c1 [GENKWANIN]", "VALUE_REPORTED": 8.7}
{"COMPOUND": "COc1cc(O)c2c(=O)cc(-c3cc(OC)c(OC)c(OC)c3)oc2c1 [CORYMBOSIN]", "VALUE_REPORTED": 19.4}
{"COMPOUND": "COc1cc(O)c2c(=O)cc(-c3cc(O)c(OC)c(OC)c3)oc2c1 [LETHEDOCIN]", "VALUE_REPORTED": 16.4}
{"COMPOUND": "COc1ccc(-c2oc3cc(O)c(OC)c(O)c3c(=O)c2OC)cc1O [CENTAUREIDIN]", "VALUE_REPORTED": 0.04}
{"COMPOUND": "CC[C@@]1(O)C(=O)OCc2c1cc1n(c2=O)Cc2cc3ccccc3nc2-1 [CAMPTOTHECIN]", "VALUE_REPORTED": 0.01}

From here, focus on the item given below.
// IC50 value for COc1cc(O)c2c(=O)cc(-c3ccc(OC)c(OC)c3)oc2c1 : 19.4
